# Tested on: Saccharomyces cerevisiae
# assay-name: protein stability index of tFT-peptide fusion (C-terminal peptide) (PSI (0-1 scale)); higher = more stable (slower turnover)
# conditions-used: genetic background: wild type; temperature: 30 C
Property: protein stability index; scope: individual sequences
Give the value as a plain number.

Solved entries:
LSPRPPSPPPPP 0.688
FGARKVELRWMV 0.53
SVLRGLCFDGYR 0.725
SLAVATAVLLYP 0.666
EYIWLSLGSVYI 0.624

The reported protein stability index of the sequence RRDIPLSPVAFS was 0.702

The reported protein stability index of the sequence HPPSPPSRVSPS was 0.594

The reported protein stability index of the sequence PNFYPLWLNLPL was 0.813

The reported protein stability index of the sequence DPAIHPNYKVAG was 0.701

The reported protein stability index of the sequence KSYKRICTKKSR was 0.782

The reported protein stability index of the sequence LSAVISHLGNSK was 0.651

The reported protein stability index of the sequence KNKQQKKNKQKR was 0.643

The reported protein stability index of the sequence QKKIKKPKSKKH was 0.736

The reported protein stability index of the sequence FCHFSSLVSVSL was 0.577

The reported protein stability index of the sequence VYPRNLPGSVPL was 0.666

====

# Tested on: Saccharomyces cerevisiae
# assay-name: protein stability index of tFT-peptide fusion in wild type (PSI (0-1 scale)); higher = more stable (slower turnover)
# conditions-used: genetic background: wild type
measured-property: protein stability index
Give the value as a plain number.

Solved entries:
ARQRVGLWRGAS 0.6
ARWEVGLWRGAS 0.458
PDKRNHLIKKLN 0.0795
PSLAAWFWRVVG 0.147
WLVSLPILLFFR 0.105

The reported protein stability index of the sequence GLYMASVGCWFR was 0.322

The reported protein stability index of the sequence GLQMCSVGCWFR was 0.195

====

# System: Saccharomyces cerevisiae
# assay-name: protein stability index of tFT-peptide fusion (C-terminal peptide) (PSI (0-1 scale)); higher = more stable (slower turnover)
# conditions-used: genetic background: das1 deletion; temperature: 30 C
Property: protein stability index; scope: individual sequences

Solved entries:
LSVVVLVLCVLL 0.279
FGLVAYPLWYIS 0.668
VVLAFFFWFFVG 0.383
FCHFSSLVSVSL 0.498

The reported protein stability index of the sequence YNRKQEAAQKAN was 0.617

The reported protein stability index of the sequence WIGCTVKIASLY was 0.558

The reported protein stability index of the sequence FPTLHPAIPYLC was 0.616

The reported protein stability index of the sequence VWPLAFFLRFFI was 0.529

The reported protein stability index of the sequence LFFCYRVFLLVF was 0.199

The reported protein stability index of the sequence LAVVCIHAVSSF was 0.352

====

# Tested on: Saccharomyces cerevisiae
# assay-name: protein stability index of tFT-peptide fusion (C-terminal peptide) (PSI (0-1 scale)); higher = more stable (slower turnover)
# conditions-used: genetic background: das1 deletion; temperature: 37 C
Property: protein stability index; scope: individual sequences
Give the value as a plain number.

Solved entries:
SLSALPRPPRLL 0.732
RQINEKKKLYMI 0.727
SLPVSPLVRLLA 0.611

The reported protein stability index of the sequence LVLCCGFWFRAV was 0.612

The reported protein stability index of the sequence SFFVCVRVFGCC was 0.44

The reported protein stability index of the sequence WLWYSPIAFTAL was 0.778

The reported protein stability index of the sequence LVLGVEVCFVLG was 0.296

The reported protein stability index of the sequence ILVLKFLRLLSA was 0.563

The reported protein stability index of the sequence LSFLFFRLCSFF was 0.668

The reported protein stability index of the sequence ATAVMILCFRWC was 0.526

The reported protein stability index of the sequence FCSNLLSMVIAV was 0.431

The reported protein stability index of the sequence YSVERCLFVSVA was 0.502

The reported protein stability index of the sequence IISICLYFLVRC was 0.391

The reported protein stability index of the sequence GGGSASGWRAAA was 0.716

The reported protein stability index of the sequence VCQVCVCFLFWR was 0.181

====

# Tested on: Saccharomyces cerevisiae
# assay-name: protein stability index of tFT-peptide fusion (C-terminal peptide) (PSI (0-1 scale)); higher = more stable (slower turnover)
# conditions-used: genetic background: doa10 deletion; temperature: 30 C
# class assignment by measured protein stability index: group 1 (below 0.2), group 2 (0.2 to below 0.4), group 3 (0.4 or more)

Some solved entries appear below for comparison.
PVKGTMIKAKNT group 1
LFHSFFLYCLMS group 3
ASSSPAPYAPYT group 3
PPPNSSTSPPCS group 3
RLVMAVRVAAGG group 2

**Query** Into which category would you place YLDRFIFIYNIF ?
**Result** group 1

**Query** Into which category would you place SWLAQCVVISLL ?
**Result** group 2

**Query** Into which category would you place LEDVLFVMVINI ?
**Result** group 2

**Query** Into which category would you place LFLLFLCLSSLF ?
**Result** group 3

**Query** Into which category would you place ILFRRRLCCFLK ?
**Result** group 3

**Query** Into which category would you place FGLVAYPLWYIS ?
**Result** group 1

**Query** Into which category would you place CFLLSYRWVFLC ?
**Result** group 1

**Query** Into which category would you place GVWLRAVRGFGV ?
**Result** group 3

**Query** Into which category would you place LMLIPRLLVGAH ?
**Result** group 1

**Query** Into which category would you place CSRDVFLFIKFL ?
**Result** group 1

**Query** Into which category would you place IGWGGGTWVKMG ?
**Result** group 1

**Query** Into which category would you place LYSLRRNWLRTP ?
**Result** group 1

**Query** Into which category would you place IVCYFFAFSFMW ?
**Result** group 2

**Query** Into which category would you place FYGVRFLVCVSA ?
**Result** group 1

====

# Test system: Saccharomyces cerevisiae
# assay-name: protein stability index of tFT-peptide fusion (C-terminal peptide) (PSI (0-1 scale)); higher = more stable (slower turnover)
# conditions-used: genetic background: cdc34-1; temperature: 37 C
// false (0) strictly below 0.4 in protein stability index; true (1) otherwise

SHPAPPSPPPSP true (1)
GFSPLFVLVFGV true (1)
FFPFHPHVLRLL true (1)

**Query** Record LRQKIIYWWLWL ; criterion: protein stability index no lower than 0.4. Met?
**Result** true (1)

**Query** Record DLPKAYCIEMIG ; criterion: protein stability index no lower than 0.4. Met?
**Result** true (1)

**Query** Record GGVVGRPWWYVG ; criterion: protein stability index no lower than 0.4. Met?
**Result** true (1)

**Query** Record CSSLIMIITCVN ; criterion: protein stability index no lower than 0.4. Met?
**Result** false (0)

**Query** Record SREQANTVYRLI ; criterion: protein stability index no lower than 0.4. Met?
**Result** true (1)

**Query** Record FLCVLYFFLCVE ; criterion: protein stability index no lower than 0.4. Met?
**Result** false (0)

====

# Tested on: Saccharomyces cerevisiae
# assay-name: protein stability index of tFT-peptide fusion (C-terminal peptide) (PSI (0-1 scale)); higher = more stable (slower turnover)
# conditions-used: genetic background: wild type; temperature: 30 C
# class assignment by measured protein stability index: label 0 = under 0.6, label 1 = from 0.6 up to 0.7, label 2 = 0.7 and over

Some solved entries appear below for comparison.
FSRPTYYFIRHS label 0
VLPVLTWWGELG label 2
TEKQSGRINTAI label 1
RTHRKNRRYKKN label 1

**Query** Into which category would you place GQGRGERRRVRP ?
**Result** label 1

**Query** Into which category would you place LHPPLPRPPYPP ?
**Result** label 1

**Query** Into which category would you place DLSRSPAPPAPL ?
**Result** label 1

**Query** Into which category would you place FTCRRYVGFMGG ?
**Result** label 2

**Query** Into which category would you place RCFSLFYIYCPA ?
**Result** label 0

**Query** Into which category would you place ARPPLSHPRPPL ?
**Result** label 2

**Query** Into which category would you place IPQIVRKLVPLT ?
**Result** label 0

**Query** Into which category would you place SSSRCRVGHAGW ?
**Result** label 1

**Query** Into which category would you place SHVPLPRAHSPP ?
**Result** label 1

**Query** Into which category would you place PANGKQNRGKRR ?
**Result** label 1

**Query** Into which category would you place PPPPPAPPPLCY ?
**Result** label 1

**Query** Into which category would you place SFDFRKGDPTSD ?
**Result** label 1
